experiment: xn = mol fraction of the nth substance listed; conditions: 288.15 K; 100.5 kPa; Liquid; x1 = 0.25
property-measured: mass density (kg/m3)
Numbers only here, please. The scale is kg/m3.

INSERT INTO assay_data (compound, property_measured, test_result) VALUES
  ('CCOC(=O)CC(C)=O [ethyl 3-oxobutanoate] + CCO', 'mass density', 895.25),
  ('CC(=O)OCc1ccccc1 [benzyl ethanoate] + CCO', 'mass density', 916.18),
  ('CCOC(=O)c1ccccc1O [ethyl 2-hydroxybenzoate] + CCO', 'mass density', 952.87),
  ('CCC(=O)OCc1ccccc1 [benzyl propanoate] + CCO', 'mass density', 912.16),
  ('CCOC(=O)CC(C)C [ethyl 3-methylbutanoate] + CCO', 'mass density', 828.3);

Continue with the compound presented below.
Could you tell me which mass density is on file for COC(=O)c1ccccc1 [methyl benzoate] + CCO ? 922.04

---

test: xn = mol fraction of the nth substance listed; conditions: 298.15 K; 100.5 kPa; Liquid; x1 = 0.9
// classify: if (mass density < 1000 kg/m3) Condition met else Condition not met

Observe how each entry below is paired with its result.
INSERT INTO results (compound, label_value) VALUES
  ('COC(=O)c1ccccc1 [methyl benzoate] + CCO', 'Condition not met'),
  ('CC(=O)OCc1ccccc1 [benzyl ethanoate] + CCO', 'Condition not met'),
  ('CCOC(=O)CC(C)C [ethyl 3-methylbutanoate] + CCO', 'Condition met');

Switching to the query record.
Could you please tell me whether mass density recorded for CCOC(=O)c1ccccc1O [ethyl 2-hydroxybenzoate] + CCO is less than 1000 kg/m3? Condition not met

---

assay: xn = mol fraction of the nth substance listed; settings: 318.15 K; 100.5 kPa; Liquid; Capillary tube (Ostwald / Ubbelohde) method; x1 = 0.4
property-measured: viscosity (mPa·s)
Numeric only. Scale: mPa·s

INSERT INTO measurements (molecule, property_measured, unit_descriptor, test_result) VALUES
  ('CCOC(=O)CC(C)=O [ethyl 3-oxobutanoate] + CCO', 'viscosity', 'mPa·s', 0.768),
  ('CCC(=O)OCc1ccccc1 [benzyl propanoate] + CCO', 'viscosity', 'mPa·s', 0.988),
  ('CCOC(=O)CC(C)C [ethyl 3-methylbutanoate] + CCO', 'viscosity', 'mPa·s', 0.571),
  ('COC(=O)c1ccccc1 [methyl benzoate] + CCO', 'viscosity', 'mPa·s', 0.877);

Please find the next molecule below.
I am curious: what viscosity value has been reported for CC(=O)OCc1ccccc1 [benzyl ethanoate] + CCO ? 0.937

---

assay: xn = mol fraction of the nth substance listed; conditions: 318.15 K; 100.5 kPa; Liquid; Capillary tube (Ostwald / Ubbelohde) method; x1 = 0.6
Collected viscosity values appear next to each entry.
Numbers only; they are read as mPa·s.

INSERT INTO results (molecule, test_result) VALUES
  ('CCOC(=O)CC(C)C [ethyl 3-methylbutanoate] + CCO', 0.55),
  ('CCOC(=O)CC(C)=O [ethyl 3-oxobutanoate] + CCO', 0.861),
  ('COC(=O)c1ccccc1 [methyl benzoate] + CCO', 0.982),
  ('CC(=O)OCc1ccccc1 [benzyl ethanoate] + CCO', 1.077);

The record that follows has no viscosity shown yet.
Please give the measured viscosity for this molecule: CCC(=O)OCc1ccccc1 [benzyl propanoate] + CCO 1.148

---

test: xn = mol fraction of the nth substance listed; settings: 318.15 K; 100.5 kPa; Liquid; x1 = 0.7
Numbers after ± are expanded uncertainties.
Entries and their mass density
Could you give the number and then its unit, please?

As a guide, the following entries are already answered.
INSERT INTO assay_data (compound, property_measured, test_result) VALUES
  ('CCOC(=O)CC(C)=O [ethyl 3-oxobutanoate] + CCO', 'mass density', '963.33 ± 0.34 kg/m3'),
  ('COC(=O)c1ccccc1 [methyl benzoate] + CCO', 'mass density', '1015.8 ± 0.34 kg/m3'),
  ('CCC(=O)OCc1ccccc1 [benzyl propanoate] + CCO', 'mass density', '976.58 ± 0.28 kg/m3'),
  ('CCOC(=O)c1ccccc1O [ethyl 2-hydroxybenzoate] + CCO', 'mass density', '1056.85 ± 0.28 kg/m3'),
  ('CCOC(=O)CC(C)C [ethyl 3-methylbutanoate] + CCO', 'mass density', '828.28 ± 0.5 kg/m3');

Next item in the queue.
Which mass density value belongs to CC(=O)OCc1ccccc1 [benzyl ethanoate] + CCO ? 992.96 ± 0.21 kg/m3

---

conditions: 318.15 K; 100.5 kPa; Liquid
property-measured: mass density (kg/m3)
Report as a plain number; the unit kg/m3 is understood.

Worked examples, 5 molecules total:
INSERT INTO assay_data (molecule, property_measured, test_result) VALUES
  ('CC(=O)OCc1ccccc1 [benzyl ethanoate]', 'mass density', 1032.03),
  ('CCO [ethanol]', 'mass density', 767.44),
  ('CCOC(=O)CC(C)C [ethyl 3-methylbutanoate]', 'mass density', 839.81),
  ('CCOC(=O)CC(C)=O [ethyl 3-oxobutanoate]', 'mass density', 1002.54),
  ('CCC(=O)OCc1ccccc1 [benzyl propanoate]', 'mass density', 1009.15);

Fill in the blank: the reported mass density of COC(=O)c1ccccc1 [methyl benzoate] is ____. 1064.62

For CCOC(=O)c1ccccc1O [ethyl 2-hydroxybenzoate] then? 1105.6

---

assay: xn = mol fraction of the nth substance listed; conditions: 288.15 K; 100.5 kPa; Liquid; Capillary tube (Ostwald / Ubbelohde) method; x1 = 0.75
property-measured: viscosity (mPa·s)
Write down the numeric answer in mPa·s and omit the unit.

Example entries and their recorded answers appear below.
INSERT INTO results (molecule, test_result) VALUES
  ('CCOC(=O)CC(C)C [ethyl 3-methylbutanoate] + CCO', 0.827),
  ('CC(=O)OCc1ccccc1 [benzyl ethanoate] + CCO', 2.081);

Please report the recorded viscosity for CCC(=O)OCc1ccccc1 [benzyl propanoate] + CCO . 2.158

Can you handle COC(=O)c1ccccc1 [methyl benzoate] + CCO next? 1.87

Please answer likewise for CCOC(=O)CC(C)=O [ethyl 3-oxobutanoate] + CCO 1.591

---

assay: xn = mol fraction of the nth substance listed; settings: 288.15 K; 100.5 kPa; Liquid; x1 = 0.9
Entries and their measured mass density follow.
Your answer is read as kg/m3, so omit the unit and give the number.

Observe how each entry below is paired with its result.
INSERT INTO measurements (compound, unit_descriptor, test_result) VALUES
  ('COC(=O)c1ccccc1 [methyl benzoate] + CCO', 'kg/m3', 1078.93),
  ('CCOC(=O)CC(C)=O [ethyl 3-oxobutanoate] + CCO', 'kg/m3', 1022.16),
  ('CCOC(=O)CC(C)C [ethyl 3-methylbutanoate] + CCO', 'kg/m3', 866.27),
  ('CCC(=O)OCc1ccccc1 [benzyl propanoate] + CCO', 'kg/m3', 1027.59),
  ('CCOC(=O)c1ccccc1O [ethyl 2-hydroxybenzoate] + CCO', 'kg/m3', 1120.61);

What value of mass density has been recorded for this entry: CC(=O)OCc1ccccc1 [benzyl ethanoate] + CCO 1048.78

---

conditions: 298.15 K; 100.5 kPa; Liquid
Just a reminder that ties go to NO: only mass density strictly below 1000 kg/m3 counts as YES.

Previously resolved entries follow.
INSERT INTO results (molecule, label_value) VALUES
  ('CCO [ethanol]', 'YES'),
  ('CCOC(=O)CC(C)C [ethyl 3-methylbutanoate]', 'YES');

API: query returns whether the molecule falls strictly under 1000 kg/m3 in mass density. Query: COC(=O)c1ccccc1 [methyl benzoate] NO

What do you have for CCOC(=O)c1ccccc1O [ethyl 2-hydroxybenzoate] ? NO

Cool, now CC(=O)OCc1ccccc1 [benzyl ethanoate] NO

---

test: xn = mol fraction of the nth substance listed; settings: 288.15 K; 100.5 kPa; Liquid; Capillary tube (Ostwald / Ubbelohde) method; x1 = 0.95
Response field label: string, one of true (viscosity strictly below 2 mPa·s) or false.

Reference set, count: 3
INSERT INTO assay_data (compound, label_value) VALUES
  ('COC(=O)c1ccccc1 [methyl benzoate] + CCO', 'false'),
  ('CCOC(=O)CC(C)=O [ethyl 3-oxobutanoate] + CCO', 'true'),
  ('CCC(=O)OCc1ccccc1 [benzyl propanoate] + CCO', 'false');

Quick check: does CCOC(=O)CC(C)C [ethyl 3-methylbutanoate] + CCO have viscosity under 2 mPa·s? true

Note, next up: CC(=O)OCc1ccccc1 [benzyl ethanoate] + CCO false

---

experiment: xn = mol fraction of the nth substance listed; conditions: 308.15 K; 100.5 kPa; Liquid; Capillary tube (Ostwald / Ubbelohde) method; x1 = 0.7
property-measured: viscosity (mPa·s)
Hi! Could you send only the number? It should be in mPa·s, unit omitted.

Which measured viscosity value corresponds to CCOC(=O)CC(C)C [ethyl 3-methylbutanoate] + CCO ? 0.618

And CCC(=O)OCc1ccccc1 [benzyl propanoate] + CCO ? 1.457

Queued: CC(=O)OCc1ccccc1 [benzyl ethanoate] + CCO 1.36

Now consider COC(=O)c1ccccc1 [methyl benzoate] + CCO and answer again. 1.231

Continue with CCOC(=O)CC(C)=O [ethyl 3-oxobutanoate] + CCO 1.073

Origin of values: the NIST ThermoML archive (doi:10.1021/je050402s)
